Hello, the source for this data is PubChem BioAssay (NCATS), in case you need it.

Test: qHTS of pediatric cancer cell lines to identify multiple opportunities for drug repurposing: Confirmatory screen for OHS-50 cells (AID 1347128);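 further: compound exposure lasted 48 h at 37 degrees C; nearly all actives have a fitted effect of over 55% in size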
Details: OHS-50 osteosarcoma cells viability; series mostly up to 45.9 µM
Records with an inconclusive call do not appear. Activity calls are given as the source filed them. The call rests on the fitted dose curve; in most records, active means well fitted cell-killing curve with a large enough effect; inconclusive means small, poorly fitted or top-dose-only effect, or effect the other way; inactive means no such curve, though single readings can be large or run the other way.
Entry note: the call must match one of t (active), f (inactive)

molecule: CCCC1OC2C[C@@H]3[C@H]4CCC5=CC(=O)C=C[C@]5(C)[C@H]4C(O)C[C@]3(C)[C@]2(C(=O)CO)O1 (stereo partly specified)
qualitativeLabel: f

Kindly provide the recorded test outcome for the following molecule: CC1C(=O)OC2C(O)C34C5CC(C(C)(C)C)C36C(OC(=O)C6O)OC4(C(=O)O5)C12O (stereo unspecified)
f

Subsequent entry: CC1CNc2c(cccc2S(=O)(=O)N[C@@H](CCCN=C(N)N)C(=O)N2CC[C@@H](C)C[C@@H]2C(=O)O)C1 (stereo partly specified)
f

Now the molecule CC1=C(CC(=O)O)c2cc(F)ccc2C1=Cc1ccc(S(C)=O)cc1 (stereo unspecified)
f

Then what about the molecule `COc1ccc(-c2ccc3ncc4c(c3c2)n(-c2ccc(N3CCNCC3)c(C(F)(F)F)c2)c(=O)n4C)cn1` ?
t

`CSc1cccc(Nc2ncc3cc(-c4c(Cl)cccc4Cl)c(=O)n(C)c3n2)c1` ?
t

###

Assay: Quantitative High-Throughput drug screen in 47 multiple myeloma cell lines against the NCATS MIPE library collection: MM1S_ATCC cell viability assay (AID 1918980); further: nearly all actives have a fitted effect of over 45% in size
Conditions: MM1S myeloma viability, CellTiter-Glo ATP luminescence, 48 h; series mostly up to 45.8 µM
Results filed as inconclusive are left out. Calls of active or inactive are those of the source. The call rests on the fitted dose curve; in most records, active means well fitted cell-killing curve with a large enough effect; inconclusive means small, poorly fitted or top-dose-only effect, or effect the other way; inactive means no such curve, though single readings can be large or run the other way.
Your answer must be one of the following: class 1 for active, class 0 for inactive

Some entries whose results are on file:
compound: COc1cc(N2CCN(C)CC2)ccc1Nc1nc(N)c(C(=O)c2c(Cl)cccc2Cl)s1
qualitativeLabel: class 1
//
compound: Oc1cc(O)cc(C=Cc2ccc(O)c(O)c2)c1
qualitativeLabel: class 1
//
compound: c1ccc(-c2oc3ncnc(NC[C@@H]4CCCO4)c3c2-c2ccccc2)cc1
qualitativeLabel: class 1

Look up the recorded call for `Fc1ccc(CNc2ncnc3ccc(F)cc23)cc1` in this test.
class 1

Can you handle `C[C@H](c1ccc(F)cc1CCCC(=O)O)N(c1cc(F)ccc1F)S(=O)(=O)c1ccc(Cl)cc1` next?
class 1

Queued: `C#C[C@]1(O)CC[C@H]2[C@H]3CCc4cc(OC)ccc4[C@H]3CC[C@@]21C`
class 1

Again, but for `COc1cc2c(cc1OC)[C@@H]1Cc3ccc(OC)c(OC)c3CN1CC2`
class 1

Then `Cc1cnc(CNC(=O)c2c(=O)c3ccc(N4CCCN(C)CC4)nc3n3c2sc2ccccc23)cn1` ?
class 1

And `CO[C@H]1O[C@@H]2O[C@@]3(C)CC[C@@H]4[C@@H](C)CC[C@@H]([C@H]1C)[C@@]24OO3` ?
class 0

Next compound up: `O=C(CC12CC3CC(CC(C3)C1)C2)Nc1cccc2nc(NCCNCCO)ccc12`
class 1

Item: `CCN(CCO)CCCOc1ccc2c(Nc3cc(CC(=O)Nc4cccc(F)c4)[nH]n3)ncnc2c1`
class 0

What do you have for `NC(=O)c1noc([C@H](CCCC2CCCCC2)CC(=O)NO)n1` ?
class 1

###

Molecular target: Cytochrome P450 3A4 (Homo sapiens)
Test: qHTS Assay for Inhibitors and Substrates of Cytochrome P450 3A4 (AID 884); further: nearly all actives have a fitted effect of over 50% in size
Conditions: recombinant CYP3A4, Luciferin-PPXE luminescence; series mostly up to 57.1 µM
Inconclusive results are not listed. Active and inactive are the calls of the source. The call rests on the fitted dose curve; in most records, active means well fitted inhibition curve with a large enough effect; inconclusive means small, poorly fitted or top-dose-only effect; inactive means no such curve, though single readings can be large or run the other way.
Answer with one of the outcomes active, inactive

Assay result, entry `CS(=O)(=O)c1ccc(C2=C(c3ccccc3)C(=O)OC2)cc1` — outcome?
inactive

Another: COC1CCC(C(=O)c2ccc3nc4c(cc3c2)CCCO4)CC1 (stereo not given)
inactive

Again, but for CN1C(=O)C(Cc2c[nH]c3ccccc23)NC1=S (stereo not given)
active

# iterate: CC(NCCc1ccc(O)cc1)C(O)c1ccc(O)cc1 (stereo not given)
inactive

Next: `CC[C@H](C)C(=O)O[C@H]1C[C@H](O)C=C2C=C[C@H](C)[C@H](CC[C@@H](O)C[C@@H](O)CC(=O)O)[C@H]21`
inactive
